# tested.system: PD-1-Ig binding to PD-L1-TVMV-His (PD-L1-His) (Homo sapiens, UniProt Q9NZQ7)
# Construct: hPDL1(19-239)-TVMV-His; made in house; host or cells: HEK293T cells
# Sequence (Q9NZQ7 with tags, fused parts or gaps): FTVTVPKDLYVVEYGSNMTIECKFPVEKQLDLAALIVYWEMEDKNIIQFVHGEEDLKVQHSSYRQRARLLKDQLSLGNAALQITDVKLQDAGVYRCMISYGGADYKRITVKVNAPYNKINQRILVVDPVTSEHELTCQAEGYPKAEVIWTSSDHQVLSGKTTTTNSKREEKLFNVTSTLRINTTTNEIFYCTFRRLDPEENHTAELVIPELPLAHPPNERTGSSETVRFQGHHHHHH
# experimental.protocol: PD-1/PD-L1 Homogenous Time-Resolved Fluorescence (HTRF) binding assay
# test.context: PD-1-Ig (20 nM) / PD-L1-His (10 nM); range classes
Each entry below carries its reported IC50.
result.type: IC50

chemical.smiles	result.type	test.value
CCCC[C@H]1C(=O)N(C)[C@@H](CCCC)C(=O)N[C@@H](CCC(=O)O)C(=O)N[C@H](C(=O)NCC(N)=O)CCNCC(=O)N[C@@H](Cc2ccc(O)cc2)C(=O)N(C)[C@@H](C)C(=O)N[C@@H](CC(=O)O)C(=O)N2CCC[C@H]2C(=O)N[C@@H](Cc2cnc[nH]2)C(=O)N[C@@H](CCC(N)=O)C(=O)N2C[C@H](O)C[C@H]2C(=O)N[C@@H](Cc2c[nH]c3ccccc23)C(=O)N[C@@H](CO)C(=O)N[C@@H](Cc2c[nH]c3ccccc23)C(=O)N1C	IC50	100 to 10000 nM
CCCC[C@H]1C(=O)N(C)[C@@H](CCCC)C(=O)N[C@@H](CC(C)C)C(=O)N[C@H](C(N)=O)CNCC(=O)N[C@@H](Cc2ccc(F)cc2)C(=O)N2CCCC[C@H]2C(=O)N[C@@H](CC(N)=O)C(=O)N2CCC[C@H]2C(=O)N[C@@H](CCC(N)=O)C(=O)N[C@@H](CCC(=O)O)C(=O)N2C[C@H](O)C[C@H]2C(=O)N[C@@H](Cc2c[nH]c3ccccc23)C(=O)N[C@@H](CC(N)=O)C(=O)N[C@@H](Cc2cn(CC(=O)O)c3ccccc23)C(=O)N1C	IC50	1 to 9.9 nM
CCCC[C@H]1C(=O)N(C)[C@@H](CCCC)C(=O)N[C@@H](CC(C)C)C(=O)N[C@H](C(=O)NCC(N)=O)CCCNCC(=O)N[C@@H](Cc2ccc(O)cc2)C(=O)N(C)[C@@H](C)C(=O)N[C@@H](CC(N)=O)C(=O)N2CCC[C@H]2C(=O)N[C@@H](Cc2cnc[nH]2)C(=O)N[C@@H](CC(C)C)C(=O)N2C[C@H](O)C[C@H]2C(=O)N[C@@H](Cc2c[nH]c3ccccc23)C(=O)NCC(=O)N[C@@H](Cc2c[nH]c3ccccc23)C(=O)N1C	IC50	100 to 10000 nM

---

Each entry below carries its reported IC50.
# tested.system: PD-1-Ig binding to PD-L1-TVMV-His (PD-L1-His) (Homo sapiens, UniProt Q9NZQ7)
# Construct: hPDL1(19-239)-TVMV-His; made in house; host or cells: HEK293T cells
# experimental.protocol: PD-1/PD-L1 Homogenous Time-Resolved Fluorescence (HTRF) binding assay
# test.context: PD-1-Ig (20 nM) / PD-L1-His (10 nM); range classes
Non-standard residues stand in square brackets, D forms with d. Residues, ends and D or L forms follow the SMILES beside them. Hyp = O=C(O)[C@@H]1C[C@@H](O)CN1; NMeNle = CCCC[C@H](NC)C(=O)O; NMeA = CN[C@@H](C)C(=O)O; Dab = NCC[C@H](N)C(=O)O; Dap = NC[C@H](N)C(=O)O; Ava = NCCCCC(=O)O

compound	IC50
CCCC[C@H]1C(=O)N(C)[C@@H](CCCC)C(=O)NC(CC(C)C)C(=O)N[C@H](C(=O)NCC(N)=O)CNCC(=O)N[C@@H](Cc2ccc(O)cc2)C(=O)N(C)[C@@H](C)C(=O)N[C@@H](CC(N)=O)C(=O)N2CCC[C@H]2C(=O)N[C@@H](CC(N)=O)C(=O)N[C@@H](CC(C)C)C(=O)N2C[C@H](O)C[C@H]2C(=O)N[C@@H](Cc2c[nH]c3ccccc23)C(=O)N[C@@H](CC(N)=O)C(=O)N[C@@H](Cc2c[nH]c3ccccc23)C(=O)N1C (some centres unmarked)	1 to 9.9 nM
CCCC[C@H]1C(=O)N(C)[C@@H](CCCC)C(=O)N[C@@H](CC(C)C)C(=O)NCCCCC(=O)N[C@@H](Cc2ccc(O)cc2)C(=O)N(C)[C@@H](C)C(=O)N[C@@H](CC(N)=O)C(=O)N2CCC[C@H]2C(=O)N[C@@H](CN)C(=O)N[C@@H](CC(C)C)C(=O)N2C[C@H](O)C[C@H]2C(=O)N[C@@H](Cc2c[nH]c3ccccc23)C(=O)N[C@@H](CCN)C(=O)N[C@@H](Cc2c[nH]c3ccccc23)C(=O)N1C [Example 10505] (cyclo([Ava]Y[NMeA]NP[Dap]L[Hyp]W[Dab]W[NMeNle][NMeNle]L))	1 to 9.9 nM

---

# tested.system: PD-1-Ig binding to PD-L1-TVMV-His (PD-L1-His) (Homo sapiens)
# Construct: hPDL1(19-239)-TVMV-His; made in house; host or cells: HEK293T cells
# experimental.protocol: PD-1/PD-L1 Homogenous Time-Resolved Fluorescence (HTRF) binding assay
# test.context: PD-1-Ig (20 nM) / PD-L1-His (10 nM); range classes
Non-standard residues stand in square brackets, D forms with d. Residues, ends and D or L forms follow the SMILES beside them. Trp(1-CH2COOH) = N[C@@H](Cc1cn(CC(=O)O)c2ccccc12)C(=O)O; Hyp = O=C(O)[C@@H]1C[C@@H](O)CN1; NMeNle = CCCC[C@H](NC)C(=O)O; Pip = O=C(O)[C@@H]1CCCCN1; Ava = NCCCCC(=O)O

molecule	IC50
CCCC[C@H]1C(=O)N(C)[C@@H](CCCC)C(=O)N[C@@H](CC(C)C)C(=O)NCCCCC(=O)N[C@@H](Cc2ccc(O)cc2)C(=O)N2CCCC[C@H]2C(=O)N[C@@H](CC(=O)O)C(=O)N2CCC[C@H]2C(=O)N[C@@H](Cc2c[nH]cn2)C(=O)N[C@@H](CCCCN)C(=O)N2C[C@H](O)C[C@H]2C(=O)N[C@@H](Cc2c[nH]c3ccccc23)C(=O)N[C@@H](CCCCN)C(=O)N[C@@H](Cc2cn(CC(=O)O)c3ccccc23)C(=O)N1C [Example 10510] (cyclo([Ava]Y[Pip]DPHK[Hyp]WK[Trp(1-CH2COOH)][NMeNle][NMeNle]L))	0.1 to 10 µM

---

# tested.system: PD-1-Ig binding to PD-L1-TVMV-His (PD-L1-His) (Homo sapiens, UniProt Q9NZQ7)
# Construct: hPDL1(19-239)-TVMV-His; made in house; host or cells: HEK293T cells
# experimental.protocol: PD-1/PD-L1 Homogenous Time-Resolved Fluorescence (HTRF) binding assay
# test.context: PD-1-Ig (20 nM) / PD-L1-His (10 nM); range classes
Non-standard residues stand in square brackets, D forms with d. Residues, ends and D or L forms follow the SMILES beside them. Trp(1-CH2COOH) = N[C@@H](Cc1cn(CC(=O)O)c2ccccc12)C(=O)O; Hyp = O=C(O)[C@@H]1C[C@@H](O)CN1; NMeNle = CCCC[C@H](NC)C(=O)O; Pip = O=C(O)[C@@H]1CCCCN1; NMeA = CN[C@@H](C)C(=O)O; Dab = NCC[C@H](N)C(=O)O; Dap = NC[C@H](N)C(=O)O; Ava = NCCCCC(=O)O

compound	IC50
CCCC[C@H]1C(=O)N(C)[C@@H](CCCC)C(=O)N[C@@H](CC(C)C)C(=O)N[C@H](C(N)=O)CNCC(=O)N[C@@H](Cc2ccc(O)cc2)C(=O)N2CCCC[C@H]2C(=O)N[C@@H](CC(=O)O)C(=O)N2CCC[C@H]2C(=O)N[C@@H](CCC(N)=O)C(=O)N[C@@H](CCC(N)=O)C(=O)N2C[C@H](O)C[C@H]2C(=O)N[C@@H](Cc2c[nH]c3ccccc23)C(=O)N[C@@H](CC(N)=O)C(=O)N[C@@H](Cc2cn(CC(=O)O)c3ccccc23)C(=O)N1C [Example 9037]	1 to 9.9 nM
CCCC[C@H]1C(=O)N(C)[C@@H](CCCC)C(=O)N[C@@H](CC(C)C)C(=O)NCC(=O)NCC(=O)N[C@@H](Cc2ccc(O)cc2)C(=O)N(C)[C@@H](C)C(=O)N[C@@H](CC(N)=O)C(=O)N2CCC[C@H]2C(=O)N[C@@H](CN)C(=O)N[C@@H](CC(C)C)C(=O)N2C[C@H](O)C[C@H]2C(=O)N[C@@H](Cc2c[nH]c3ccccc23)C(=O)N[C@@H](CCN)C(=O)N[C@@H](Cc2c[nH]c3ccccc23)C(=O)N1C [Example 5001] (cyclo([Dab]W[NMeNle][NMeNle]LGGY[NMeA]NP[Dap]L[Hyp]W))	1 to 9.9 nM
CCCC[C@H]1C(=O)N(C)[C@@H](CCCC)C(=O)N[C@@H](CC(C)C)C(=O)N[C@H](C(N)=O)CNCC(=O)N[C@@H](Cc2ccc(F)cc2)C(=O)N2CCCC[C@H]2C(=O)N[C@@H](CC(N)=O)C(=O)N2CCC[C@H]2C(=O)N[C@@H](CCC(N)=O)C(=O)N[C@@H](CC(=O)O)C(=O)N2C[C@H](O)C[C@H]2C(=O)N[C@@H](Cc2c[nH]c3ccccc23)C(=O)N[C@@H](CC(N)=O)C(=O)N[C@@H](Cc2cn(CC(=O)O)c3ccccc23)C(=O)N1C [Example 9031]	1 to 9.9 nM
CCCC[C@H]1C(=O)N(C)[C@@H](CCCC)C(=O)N[C@@H](CCC(=O)O)C(=O)N[C@H](C(N)=O)CNCC(=O)N[C@@H](Cc2ccc(O)cc2)C(=O)N2CCCC[C@H]2C(=O)N[C@@H](CC(N)=O)C(=O)N2CCC[C@H]2C(=O)N[C@@H](CCC(N)=O)C(=O)N[C@@H](CC(=O)O)C(=O)N2C[C@H](O)C[C@H]2C(=O)N[C@@H](Cc2c[nH]c3ccccc23)C(=O)N[C@@H](CC(N)=O)C(=O)N[C@@H](Cc2cn(CC(=O)O)c3ccccc23)C(=O)N1C [Example 9043]	1 to 9.9 nM
CCCC[C@H]1C(=O)N(C)[C@@H](CCCC)C(=O)NC(CC(C)C)C(=O)N[C@H](C(=O)NCC(N)=O)CNCC(=O)N[C@@H](Cc2ccc(O)cc2)C(=O)N(C)[C@@H](C)C(=O)N[C@@H](CC(N)=O)C(=O)N2CCC[C@H]2C(=O)N[C@@H](CN)C(=O)N[C@@H](CC(C)C)C(=O)N2C[C@H](O)C[C@H]2C(=O)N[C@@H](Cc2c[nH]c3ccccc23)C(=O)N[C@@H](CCCCN)C(=O)N[C@@H](Cc2cn(CC(=O)O)c3ccccc23)C(=O)N1C (stereo partly drawn) [Example 1032]	1 to 9.9 nM
CCCC[C@H]1C(=O)N(C)[C@@H](CCCC)C(=O)N[C@@H](CCC(=O)O)C(=O)N[C@H](C(N)=O)CNCC(=O)N[C@@H](Cc2ccc(O)cc2)C(=O)N2CCCC[C@H]2C(=O)N[C@@H](CC(N)=O)C(=O)N2CCC[C@H]2C(=O)N[C@@H](Cc2c[nH]cn2)C(=O)N[C@@H](CCC(N)=O)C(=O)N2C[C@H](O)C[C@H]2C(=O)N[C@@H](Cc2c[nH]c3ccccc23)C(=O)N[C@@H](C)C(=O)N[C@@H](Cc2cn(CC(=O)O)c3ccccc23)C(=O)N1C [Example 9056]	1 to 9.9 nM
CCCC[C@H]1C(=O)N(C)[C@@H](CCCC)C(=O)N[C@@H](CC(C)C)C(=O)NCCCCC(=O)N[C@@H](Cc2ccc(O)cc2)C(=O)N2CCCC[C@H]2C(=O)N[C@@H](CC(N)=O)C(=O)N2CCC[C@H]2C(=O)N[C@@H](CN)C(=O)N[C@@H](CC(C)C)C(=O)N2C[C@H](O)C[C@H]2C(=O)N[C@@H](Cc2c[nH]c3ccccc23)C(=O)N[C@@H](CCN)C(=O)N[C@@H](Cc2cn(CC(=O)O)c3ccccc23)C(=O)N1C [Example 10512] (cyclo([Ava]Y[Pip]NP[Dap]L[Hyp]W[Dab][Trp(1-CH2COOH)][NMeNle][NMeNle]L))	100 to 10000 nM
CCCC[C@H]1C(=O)N(C)[C@@H](CCCC)C(=O)N[C@@H](CC(C)C)C(=O)N[C@H](C(=O)NCC(N)=O)CCNCC(=O)N[C@@H](Cc2ccccc2)C(=O)N(C)[C@@H](C)C(=O)N[C@@H](CC(C)C)C(=O)N2CCC[C@H]2C(=O)N[C@@H](CC(C)C)C(=O)N[C@@H](CC(C)C)C(=O)N2CCC[C@H]2C(=O)N[C@@H](Cc2c[nH]c3ccccc23)C(=O)N[C@@H](CC(C)C)C(=O)N[C@@H](Cc2c[nH]c3ccccc23)C(=O)N1C [Example 10009]	100 to 10000 nM
CCCC[C@H]1C(=O)N(C)[C@@H](CCCC)C(=O)N[C@@H](CC(C)C)C(=O)N[C@H](C(=O)NCC(N)=O)CNCC(=O)N[C@@H](Cc2ccc(O)cc2)C(=O)N2CCCC[C@H]2C(=O)N[C@@H](CC(N)=O)C(=O)N2CCC[C@H]2C(=O)N[C@@H](CN)C(=O)N[C@@H](CC(C)C)C(=O)N2C[C@H](O)C[C@H]2C(=O)N[C@@H](Cc2c[nH]c3ccccc23)C(=O)N[C@@H](CCN)C(=O)N[C@@H](Cc2cn(CC(=O)O)c3ccccc23)C(=O)N1C [Example 1037]	1 to 9.9 nM
